System: human Ret TKR-catalytic domain (Homo sapiens, UniProt P07949)
Construct: human Ret TKR-catalytic domain; purchased ProQinase
Sequence (P07949 724-1016 limits assumed): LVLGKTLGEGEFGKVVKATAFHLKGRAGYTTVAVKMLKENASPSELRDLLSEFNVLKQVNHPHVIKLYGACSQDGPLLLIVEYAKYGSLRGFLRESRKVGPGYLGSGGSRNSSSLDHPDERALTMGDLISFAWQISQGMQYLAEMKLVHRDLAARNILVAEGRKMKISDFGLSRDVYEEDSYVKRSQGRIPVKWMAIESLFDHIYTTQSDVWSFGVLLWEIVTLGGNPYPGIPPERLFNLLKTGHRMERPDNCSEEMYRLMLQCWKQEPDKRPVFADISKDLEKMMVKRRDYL
Protocol details: DELFIA Ret Kinase Assay (cell-free)
Type: biochemical
Run parameters: cell-free DELFIA, 50 ng Ret TKR, 3 μM ATP, 10 min. at 30° C.; read-out: IC50
Method: In order to evidence and quantify inhibitory activity on Ret tyrosine kinase, the most representative compounds of the invention were tested with a dedicated DELFIA kinase assay, using a human tyrosine-kinase receptor (Ret TKR) recombinant form (human Ret TKR-catalytic domain) available from ProQinase as the tyrosine kinase. After 10 min. incubation at 30° C., the kinase reactions were worked up as in the DELFIA cKit Kinase Assay.
Experimental readout: IC50
Include the unit after the number when you answer.

Noted IC50 for `COc1cc2c(cc1OC)/C(=C/c1ccc(OC(=O)CCCCNC(=O)OC(C)(C)C)cc1)C(=O)N2` , tested on human Ret TKR-catalytic domain (Homo sapiens, UniProt P07949): 3.45 µM

Noted IC50 for `COc1cc2c(cc1OC)/C(=C\c1ccc(OCCO)cc1)C(=O)N2` , tested on human Ret TKR-catalytic domain (Homo sapiens, UniProt P07949): 1.12 µM

Noted IC50 for `COc1cc2c(cc1OC)/C(=C\c1ccc(OC(=O)N3CCN(CCO)CC3)cc1)C(=O)N2` , tested on human Ret TKR-catalytic domain (Homo sapiens, UniProt P07949): 1.77 µM

Noted IC50 for `COc1ccc(OC(=O)Oc2ccc(/C=C3\C(=O)Nc4cc(OC)c(OC)cc43)cc2)cc1` , tested on human Ret TKR-catalytic domain (Homo sapiens, UniProt P07949): 4.84 µM

Noted IC50 for `COc1cc2c(cc1OC)/C(=C\c1ccc(OC(=O)N3CCN(C)CC3)cc1)C(=O)N2` , tested on human Ret TKR-catalytic domain (Homo sapiens, UniProt P07949): 13.3 µM

----------
System: Human cKit Tyrosine Kinase Receptor (human cKit RTK-catalytic domain) (Homo sapiens)
Construct: human cKit RTK-catalytic domain; purchased Panvera-Invitrogen P3080
Sequence (P10721 589-937 limits assumed): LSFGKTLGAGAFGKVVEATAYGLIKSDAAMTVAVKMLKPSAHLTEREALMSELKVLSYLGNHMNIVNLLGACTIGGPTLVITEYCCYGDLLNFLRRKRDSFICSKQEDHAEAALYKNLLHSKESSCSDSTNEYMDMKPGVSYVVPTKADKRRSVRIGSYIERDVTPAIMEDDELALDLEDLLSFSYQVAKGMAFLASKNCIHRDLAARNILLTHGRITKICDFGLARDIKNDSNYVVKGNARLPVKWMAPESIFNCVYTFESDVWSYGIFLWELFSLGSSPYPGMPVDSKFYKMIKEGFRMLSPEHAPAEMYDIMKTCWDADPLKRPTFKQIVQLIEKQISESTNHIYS
Protocol details: DELFIA cKit Tyrosine Kinase Assay (cell-free)
Assay type: biochemical
Run parameters: cell-free DELFIA, 25 ng cKit TKR, 150 μM ATP, 20 minutes at 30° C.; read-out: IC50
Note to self: IC50 under 3 µM means criterion met, ties and anything higher get criterion not met.

- Chemical smiles: "COCCOCCOCC(=O)Oc1ccc(/C=C2/C(=O)Nc3cc(OC)c(OC)cc32)cc1"
  System: "Human cKit Tyrosine Kinase Receptor (human cKit RTK-catalytic domain) (Homo sapiens)"
  Assigned class: "criterion not met"
- Chemical smiles: "COc1cc2c(cc1OC)/C(=C/c1ccc(OC(=O)c3cccn3C)cc1)C(=O)N2"
  System: "Human cKit Tyrosine Kinase Receptor (human cKit RTK-catalytic domain) (Homo sapiens)"
  Assigned class: "criterion met"
- Chemical smiles: "COc1cc2c(cc1OC)/C(=C\\c1ccc(OC(=O)N3CCN(CCOCCO)CC3)cc1)C(=O)N2"
  System: "Human cKit Tyrosine Kinase Receptor (human cKit RTK-catalytic domain) (Homo sapiens)"
  Assigned class: "criterion not met"
- Chemical smiles: "COc1cc2c(cc1OC)/C(=C\\c1ccc(OC(=O)N3CCN(CCO)CC3)cc1)C(=O)N2"
  System: "Human cKit Tyrosine Kinase Receptor (human cKit RTK-catalytic domain) (Homo sapiens)"
  Assigned class: "criterion not met"
- Chemical smiles: "COc1cc2c(cc1OC)/C(=C\\c1ccc(O)cc1)C(=O)N2"
  System: "Human cKit Tyrosine Kinase Receptor (human cKit RTK-catalytic domain) (Homo sapiens)"
  Assigned class: "criterion met"

Prompt: Input `COc1cc2c(cc1OC)/C(=C\c1ccc(OC(=O)CCCCNC(=O)OC(C)(C)C)cc1)C(=O)N2` ; condition: IC50 strictly below 3 µM. Does it hold?
Completion: criterion met

Prompt: Input `COc1cc2c(cc1OC)/C(=C\c1ccc(OC(=O)N3CCN(c4ccccc4)CC3)cc1)C(=O)N2` ; condition: IC50 strictly below 3 µM. Does it hold?
Completion: criterion met

Prompt: Input `CCCCCCNC(=O)Oc1ccc(/C=C2/C(=O)Nc3cc(OC)c(OC)cc32)cc1` ; condition: IC50 strictly below 3 µM. Does it hold?
Completion: criterion met

Prompt: Input `CCCCCNC(=O)Oc1ccc(/C=C2/C(=O)Nc3cc(OC)c(OC)cc32)cc1` ; condition: IC50 strictly below 3 µM. Does it hold?
Completion: criterion met

Where do these numbers come from? They come from patent US20050209195A1.
